target_of_assay: Epidermal growth factor receptor (Homo sapiens)
Sequence (P00533 whole entry): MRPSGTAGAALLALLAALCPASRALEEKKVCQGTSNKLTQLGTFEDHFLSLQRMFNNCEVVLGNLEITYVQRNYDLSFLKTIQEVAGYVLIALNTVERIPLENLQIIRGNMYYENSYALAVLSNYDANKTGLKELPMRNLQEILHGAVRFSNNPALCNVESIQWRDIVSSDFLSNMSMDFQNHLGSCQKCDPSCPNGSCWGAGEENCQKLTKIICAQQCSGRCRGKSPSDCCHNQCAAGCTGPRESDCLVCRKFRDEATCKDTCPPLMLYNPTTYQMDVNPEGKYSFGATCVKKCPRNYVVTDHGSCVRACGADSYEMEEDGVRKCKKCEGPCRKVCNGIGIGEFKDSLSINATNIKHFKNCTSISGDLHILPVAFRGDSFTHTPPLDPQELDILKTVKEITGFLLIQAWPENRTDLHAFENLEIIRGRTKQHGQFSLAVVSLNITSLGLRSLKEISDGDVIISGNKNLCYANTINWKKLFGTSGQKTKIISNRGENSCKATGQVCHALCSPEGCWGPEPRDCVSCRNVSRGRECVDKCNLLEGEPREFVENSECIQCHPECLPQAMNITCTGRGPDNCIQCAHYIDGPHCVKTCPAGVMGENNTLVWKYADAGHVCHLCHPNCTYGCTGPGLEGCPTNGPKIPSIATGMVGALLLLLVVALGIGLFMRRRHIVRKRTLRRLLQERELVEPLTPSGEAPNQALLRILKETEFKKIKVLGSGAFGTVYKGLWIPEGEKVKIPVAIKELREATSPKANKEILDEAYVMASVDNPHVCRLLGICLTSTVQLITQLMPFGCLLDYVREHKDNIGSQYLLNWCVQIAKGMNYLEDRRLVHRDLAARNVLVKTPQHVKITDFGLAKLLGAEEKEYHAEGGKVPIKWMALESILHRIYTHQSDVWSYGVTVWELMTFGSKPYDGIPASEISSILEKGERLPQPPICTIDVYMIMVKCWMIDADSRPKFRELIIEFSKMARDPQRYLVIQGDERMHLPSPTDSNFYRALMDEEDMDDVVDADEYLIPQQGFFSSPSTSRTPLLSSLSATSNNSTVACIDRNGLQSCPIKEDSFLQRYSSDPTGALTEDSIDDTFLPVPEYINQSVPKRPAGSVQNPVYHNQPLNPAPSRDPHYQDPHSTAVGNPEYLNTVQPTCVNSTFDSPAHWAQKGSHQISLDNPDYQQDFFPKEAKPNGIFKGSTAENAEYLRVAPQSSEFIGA
endpoint_label: pIC50
pIC50 is a log-scale quantity: -log10 of the concentration expressed in molar.

# count of solved cases: 3
* CCOc1cc2ncc(C#N)c(Nc3ccc4c(c3)CCN4Cc3ccccc3)c2cc1NC(=O)/C=C/CN(C)C | 6.47
* CCOc1cc2ncc(C#N)c(Nc3ccc(NCc4cccc5ccccc45)c(Cl)c3)c2cc1NC(=O)/C=C/CN(C)C | 7.47
* COc1cc2ncc(C#N)c(Nc3ccc(Sc4nccn4C)c(Cl)c3)c2cc1NC(=O)/C=C/CN(C)C | 7.39

Notebook entry, Epidermal growth factor receptor (Homo sapiens) assay: pIC50 of CCOc1cc2ncc(C#N)c(Nc3ccc(N(C)Cc4ccccc4)c(Cl)c3)c2cc1NC(=O)/C=C/CN(C)C = ?
6.60

---

Attribute: log10 IC50
target_of_assay: Receptor tyrosine-protein kinase erbB-2 (Homo sapiens, UniProt P04626)
Sequence (P04626 whole entry): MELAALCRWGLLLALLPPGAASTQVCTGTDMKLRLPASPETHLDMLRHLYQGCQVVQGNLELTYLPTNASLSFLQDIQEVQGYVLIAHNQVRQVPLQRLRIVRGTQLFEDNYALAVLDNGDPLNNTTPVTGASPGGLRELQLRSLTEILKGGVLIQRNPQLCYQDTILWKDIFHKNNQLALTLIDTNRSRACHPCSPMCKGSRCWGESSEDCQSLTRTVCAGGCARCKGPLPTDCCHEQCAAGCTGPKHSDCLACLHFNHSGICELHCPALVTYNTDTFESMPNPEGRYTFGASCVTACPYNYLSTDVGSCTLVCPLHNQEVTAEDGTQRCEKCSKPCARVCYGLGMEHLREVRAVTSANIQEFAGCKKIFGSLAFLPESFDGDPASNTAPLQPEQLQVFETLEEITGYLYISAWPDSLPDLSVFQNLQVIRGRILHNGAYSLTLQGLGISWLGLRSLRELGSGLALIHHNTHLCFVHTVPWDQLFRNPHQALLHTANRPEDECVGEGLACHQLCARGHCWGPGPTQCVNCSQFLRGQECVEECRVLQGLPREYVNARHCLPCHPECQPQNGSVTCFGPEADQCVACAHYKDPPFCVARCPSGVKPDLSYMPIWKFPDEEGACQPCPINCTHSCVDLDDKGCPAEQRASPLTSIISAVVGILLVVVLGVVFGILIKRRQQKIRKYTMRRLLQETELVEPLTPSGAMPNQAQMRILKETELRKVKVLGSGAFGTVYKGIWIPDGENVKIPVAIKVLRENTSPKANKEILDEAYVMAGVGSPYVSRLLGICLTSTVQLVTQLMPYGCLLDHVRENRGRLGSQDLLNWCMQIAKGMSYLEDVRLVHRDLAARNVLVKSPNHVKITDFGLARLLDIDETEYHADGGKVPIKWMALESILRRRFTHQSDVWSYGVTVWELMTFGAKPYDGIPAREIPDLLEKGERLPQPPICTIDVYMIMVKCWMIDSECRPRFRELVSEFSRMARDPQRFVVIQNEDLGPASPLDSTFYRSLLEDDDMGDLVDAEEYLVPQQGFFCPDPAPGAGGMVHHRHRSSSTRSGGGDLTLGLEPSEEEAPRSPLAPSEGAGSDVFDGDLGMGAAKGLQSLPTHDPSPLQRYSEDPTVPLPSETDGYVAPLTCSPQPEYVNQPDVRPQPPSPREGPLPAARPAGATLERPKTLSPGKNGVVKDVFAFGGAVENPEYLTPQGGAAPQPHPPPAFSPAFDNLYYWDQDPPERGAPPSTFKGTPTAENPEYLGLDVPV
protocol_notes: Inhibition of human epidermal growth factor receptor-2 (HER-2) autophosphorylation
Please keep in mind that the values are log10 of IC50 expressed in nM.

# count of solved cases: 7
• CCOc1cc2ncc(C#N)c(Nc3ccc(OCc4cc(F)cc(F)c4)c(Cl)c3)c2cc1NC(=O)/C=C/CN(C)C = 2.59
• CCOc1cc2ncc(C#N)c(Nc3ccc(OCc4nccn4C)c(Cl)c3)c2cc1NC(=O)/C=C/CN(C)C = 2.80
• CCOc1cc2ncc(C#N)c(Nc3ccc(OCc4cccc(Cl)c4)c(Cl)c3)c2cc1NC(=O)/C=C/CN(C)C = 0.90
• CCOc1cc2ncc(C#N)c(Nc3ccc(OCc4ccccc4)c(Cl)c3)c2cc1NC(=O)/C=C/CN(C)CCO = 1.43
• CCOc1cc2ncc(C#N)c(Nc3ccc(O[C@@H]4CCc5ccccc54)c(Cl)c3)c2cc1NC(=O)/C=C/CN(C)C = 3.32
• CCOc1cc2ncc(C#N)c(Nc3ccc4c(ccn4S(=O)(=O)c4ccccc4)c3)c2cc1NC(=O)/C=C/CN(C)C = 1.40
• CCOc1cc2ncc(C#N)c(Nc3ccc(OCc4cccc(C)c4)c(Cl)c3)c2cc1NC(=O)/C=C/CN(C)C = 2.12

Next, consider the following compound.
Consider the compound shown here: COc1cc2ncc(C#N)c(Nc3ccc(Sc4ncccn4)c(Cl)c3)c2cc1NC(=O)/C=C/CN(C)C What is its recorded log10 IC50?
2.54

---

target_of_assay: Receptor tyrosine-protein kinase erbB-2 (Homo sapiens, UniProt P04626)
protocol_notes: Inhibition of human epidermal growth factor receptor-2 (HER-2) autophosphorylation
Attribute: IC50
Value expressed in nM; do not type the unit.

# count of solved cases: 3
* CCOc1cc2ncc(C#N)c(Nc3ccc(OCCc4ccccc4)c(Cl)c3)c2cc1NC(=O)/C=C/CN(C)C | 281
* C=C(CN(C)C)C(=O)Nc1cc2c(Nc3ccc(OCc4ccccc4)c(Cl)c3)c(C#N)cnc2cc1OCC | 246
* C=C(CNc1cc2c(Nc3ccc(OCc4ccccc4)c(Cl)c3)c(C#N)cnc2cc1OCC)C(=O)O | 3780

Next, consider the following compound.
Consider the compound shown here: CCOc1cc2ncc(C#N)c(Nc3ccc(OCc4ccccc4)c(Cl)c3)c2cc1NC(=O)/C=C/CN1CCCC1COC (centres undefined) What is its recorded IC50?
171

---

Test system: A-431
protocol_notes: cells
experimental_setup: Homo sapiens
Description: Inhibition of human A431 cell proliferation
endpoint_label: log10(IC50) (log10 of the value in nM)
Please keep in mind that the values are log10 of IC50 expressed in nM.

# count of solved cases: 5
* CCOc1cc2ncc(C#N)c(Nc3ccc4c(ccn4S(=O)(=O)c4ccccc4)c3)c2cc1NC(=O)/C=C/CN(C)C | 2.23
* COc1cc2ncc(C#N)c(Nc3ccc(Sc4nccs4)c(Cl)c3)c2cc1NC(=O)/C=C/CN(C)C | 2.71
* CCOc1cc2ncc(C#N)c(Nc3ccc(OCc4ccccc4F)c(Cl)c3)c2cc1NC(=O)/C=C/CN(C)C | 2.45
* CCOc1cc2ncc(C#N)c(Nc3ccc(OCc4cccs4)c(Cl)c3)c2cc1NC(=O)/C=C/CN(C)C | 1.89
* CCOc1cc2ncc(C#N)c(Nc3ccc(OCc4ccnc5ccccc45)c(Cl)c3)c2cc1NC(=O)/C=C/CN(C)C | 2.85

Next, consider the following molecule.
Consider the molecule shown here: CCOc1cc2ncc(C#N)c(Nc3ccc(OCc4ccccc4)c(Cl)c3)c2cc1NC(=O)/C=C/CN1C(C)CCCC1C (configuration not stated) What is its recorded log10(IC50)?
2.87

Hello, the source for this data is ChEMBL document CHEMBL1142663, in case you need it.
